Data credit: ChEMBL document CHEMBL5543097

System: Streptococcus pneumoniae
Experiment: Antibacterial activity against erythromycin-resistant Streptococcus pneumoniae SPN19-14 assessed as inhibition of visible bacterial growth incubated for 18 hrs by broth microdilution method
Assay type: functional
property_label: MIC (µg/mL)
// units = µg/mL; emit number, no label

**Query** Request: MIC, test system Streptococcus pneumoniae, entry CC[C@H]1OC(=O)[C@@](C)(F)C(=O)[C@H](C)[C@@H](O[C@@H]2O[C@H](C)C[C@H](N(C)C)[C@H]2O)[C@](C)(OC)C[C@@H](C)C(=O)[C@H](C)[C@H]2N(CCCOC(=O)Nc3ccc(-c4ncccn4)cc3)C(=O)O[C@]12C
**Result** 0.25

**Query** Queued: CC[C@H]1OC(=O)[C@H](C)C(=O)[C@H](C)[C@@H](O[C@@H]2O[C@H](C)C[C@H](N(C)C)[C@H]2O)[C@](C)(OC)C[C@@H](C)C(=O)[C@H](C)[C@H]2N(CCCOC(=O)Nc3ccc(C)cc3)C(=O)O[C@]12C
**Result** 0.25

**Query** Queued: CC[C@H]1OC(=O)[C@@](C)(F)C(=O)[C@H](C)[C@@H](O[C@@H]2O[C@H](C)C[C@H](N(C)C)[C@H]2O)[C@](C)(OC)C[C@@H](C)C(=O)[C@H](C)[C@H]2N(CCCOC(=O)Nc3c(F)cccc3F)C(=O)O[C@]12C
**Result** 0.125

**Query** Queued: CC[C@H]1OC(=O)[C@@](C)(F)C(=O)[C@H](C)[C@@H](O[C@@H]2O[C@H](C)C[C@H](N(C)C)[C@H]2O)[C@](C)(OC)C[C@@H](C)C(=O)[C@H](C)[C@H]2N(CCCOC(=O)Nc3cccc(C)c3C)C(=O)O[C@]12C
**Result** 0.06

**Query** Queued: CC[C@H]1OC(=O)[C@H](C)[C@@H](O[C@H]2C[C@@](C)(OC)[C@@H](O)[C@H](C)O2)[C@H](C)[C@@H](O[C@@H]2O[C@H](C)C[C@H](N(C)C)[C@H]2O)[C@](C)(O)C[C@@H](C)C(=O)[C@H](C)[C@@H](O)[C@]1(C)O
**Result** 0.5

**Query** Queued: CC[C@H]1OC(=O)[C@H](C)C(=O)[C@H](C)[C@@H](O[C@@H]2O[C@H](C)C[C@H](N(C)C)[C@H]2O)[C@](C)(OC)C[C@@H](C)C(=O)[C@H](C)[C@H]2N(CCCCn3cnc(-c4cccnc4)c3)C(=O)O[C@]12C
**Result** 0.25

**Query** Queued: CC[C@H]1OC(=O)[C@@](C)(F)C(=O)[C@H](C)[C@@H](O[C@@H]2O[C@H](C)C[C@H](N(C)C)[C@H]2O)[C@](C)(OC)C[C@@H](C)C(=O)[C@H](C)[C@H]2N(CCCOC(=O)Nc3ccccc3[N+](=O)[O-])C(=O)O[C@]12C
**Result** 0.25

**Query** Queued: CC[C@H]1OC(=O)[C@@](C)(F)C(=O)[C@H](C)[C@@H](O[C@@H]2O[C@H](C)C[C@H](N(C)C)[C@H]2O)[C@](C)(OC)C[C@@H](C)C(=O)[C@H](C)[C@H]2N(CCCOC(=O)Nc3ccc(-c4ccccc4)cc3)C(=O)O[C@]12C
**Result** 0.125
